Tested on: UACC-62
Assay: NCI tumour cell line growth inhibition, 48 h
Calls of active or inactive are those of the source. No stated cut-off is given here; in the data, active = GI50 up to about 1.1 µM and inactive = higher.
A collection of compounds and their measured GI50

compound | measurementTarget | GI50
Cn1cc(C(=O)NCCC(=N)N)cc1NC(=O)C1=[N+](C)C=C(NC(=O)c2cccc(C(=O)NC3=CC(C(=O)Nc4cc(C(=O)NCCC(=N)N)cn4C)=[N+](C)C3)c2)C1 | UACC-62 | 37.8 µM (inactive)
O=C1C=CC(=O)N1n1c(Cc2ccccc2)n[nH]c1=O | UACC-62 | > 100 µM (inactive)
COC1OC2COC(C)(C)OC2C2OC(C)(C)OC12 (stereo unspecified) | UACC-62 | 45.1 µM (inactive)
O=S(=O)(O)c1ccc(/N=N/c2ccc(/N=N/c3c(O)ccc4ccccc34)cc2)cc1 | UACC-62 | > 100 µM (inactive)
COc1cccc2cc(C(=O)Nc3ccccc3)c(=N)oc12 | UACC-62 | 62.4 µM (inactive)
Cc1cc(NCCCCCCCNc2cc(C)nc3cc(N)ccc23)c2ccc(N)cc2n1 | UACC-62 | 35.5 µM (inactive)
